# Target Desc: human CBS (cystathionine-β-synthase) (Homo sapiens, UniProt P35520)
# Construct: GST (N); made in house; host or cells: E. coli BL21(DE3) Codon Plus
# Sequence (P35520 whole entry): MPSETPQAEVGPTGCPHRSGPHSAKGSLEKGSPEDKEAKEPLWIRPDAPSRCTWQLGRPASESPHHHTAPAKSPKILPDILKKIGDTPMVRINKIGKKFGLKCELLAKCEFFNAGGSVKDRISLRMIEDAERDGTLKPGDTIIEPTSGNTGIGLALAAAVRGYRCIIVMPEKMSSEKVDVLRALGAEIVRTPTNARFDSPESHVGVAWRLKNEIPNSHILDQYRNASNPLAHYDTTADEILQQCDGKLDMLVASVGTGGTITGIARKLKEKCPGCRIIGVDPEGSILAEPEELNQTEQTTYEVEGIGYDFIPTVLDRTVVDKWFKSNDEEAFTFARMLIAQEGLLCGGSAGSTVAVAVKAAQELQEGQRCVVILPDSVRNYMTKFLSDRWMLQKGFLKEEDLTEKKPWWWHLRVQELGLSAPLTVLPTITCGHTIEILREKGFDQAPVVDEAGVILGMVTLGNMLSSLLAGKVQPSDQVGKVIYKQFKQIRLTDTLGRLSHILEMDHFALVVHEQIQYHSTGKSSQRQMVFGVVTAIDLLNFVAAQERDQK
# Experiment Notes: H2S production by recombinant CBS
# Format: biochemical
# Condition Details: 100 μM compound; H2S production as % of control (100%)
Readout Name: activity at 100 µM (%)

Molecule | activity at 100 µM, %
COc1cc(O)c2c(=O)cc(-c3ccc(OCCN4CCCC4)cc3)oc2c1 | 109
COc1cc(OC)c2c(=O)cc(-c3ccc(OCC(O)CO)cc3)oc2c1 (stereo not shown) | 104
COc1cc(OC)c2c(=O)cc(-c3ccc(NCCN(C)C)cc3)oc2c1 | 112
CCN(CC)CCOc1ccc(-c2cc(=O)c3c(OC)cc(OC)cc3o2)cc1 | 106
COc1cc(OC)c2c(=O)cc(-c3ccc(NCCN4CCCC4)cc3)oc2c1 | 109
COc1cc(OC)c2c(=O)cc(-c3ccc(OCCN4CCCC4=O)cc3)oc2c1 | 108
COc1cc(OC)c2c(=O)cc(-c3ccc(OCC(O)CN(C)C)cc3)oc2c1 (stereo not shown) | 117
